ASSAY INFO: budding yeast growth changes without added modifier – OD600, strain BY4716, 24 h, basal condition, primary screen (AID 1173)
CONDITION: S. cerevisiae BY4716 growth, OD600, 24 h; higher = more signal, called active from +8 up or from −8 down
z-score reference
Give only the figure.

# annotated cases, reported z-score shown
Sample COCCOC(=O)N1C(=O)[C@@]2(c3cc(C#CC4(O)CCCCCC4)ccc31)[C@H](C(=O)Nc1nc3ccccc3s1)[C@H]1C(=O)O[C@H](c3ccccc3)[C@H](c3ccccc3)N1[C@@H]2c1ccc(O)cc1 — what was its z-score?
-0.873

Sample CCOC(=O)C[C@H]1[C@H](OC(=O)c2ccc(C(=O)c3ccccc3)cc2)[C@@H](NC(=O)c2ccc(-c3ccccc3)cc2)c2cc(OCCCO)ccc2N1C(=O)Cc1ccc(OC)cc1 — what was its z-score?
0.401

Sample CCCCCCCCCCC(O)C1C=CC2C(=O)N(c3ccccc3)C(=O)C2N1Nc1ccc(C#N)cc1 (configuration not stated) — what was its z-score?
1.18

Sample CCOC(=O)C=Cc1cccc(C)c1O — what was its z-score?
-10.7

Sample CCCC=C(CCC)[C@@H](NC(=O)C(C)(C)C)c1ccc(C(=O)OC)cc1 — what was its z-score?
1.3

Sample CO[C@H]1O[C@H](CO)[C@@H](OC(=O)Nc2ccc3c(c2)OCO3)[C@H](OC(=O)Nc2ccc3c(c2)OCO3)[C@@H]1OC(=O)Nc1ccc2c(c1)OCO2 — what was its z-score?
1.44

More entries:
Sample CC[C@@H]1O[Si](C(C)C)(C(C)C)c2c1cc(-c1cc(C)c(OC)c(C)c1)nc2-c1ccc(Oc2ccccc2)cc1 — what was its z-score?
-0.122

Values from PubChem BioAssay
